# Tested on: HRV 1A
# assay-protocol: Antiviral assay, XTT method, HRV 1A
# Assay type: cell-based
# setup-conditions: Format 2
Class field: derived from IC50; ranges bin A: < 20 µM; bin B: ≥ 20 µM and < 100 µM; bin C: ≥ 100 µM

> print(dat)
                          compound.structure  category
 1         CC(=O)c1cc(Cl)cc([N+](=O)[O-])c1O     bin B
 2                     COc1ccc(O)c(C(C)=O)c1     bin C
 3               O=C(c1ccccc1O)c1cc(Br)ccc1O     bin B
 4                   CC(=O)c1c(O)ccc2ccccc12     bin C
 5         O=C(CCc1ccc(O)cc1)c1c(O)cc(O)cc1O     bin C
 6   O=c1c(O)c(-c2ccc(O)cc2)oc2cc(O)cc(O)c12     bin A
 7                      O=Cc1cc(Cl)cc(Cl)c1O     bin A
 8                   CC(=O)c1cc(Cl)cc(Cl)c1O     bin A
 9                        CC(=O)c1cc(O)ccc1O     bin C
10  O=C(NCCc1ccccc1)c1cc([N+](=O)[O-])cc([N+](=O)[O-])c1O     bin A
11                   O=C(c1ccccc1O)c1ccccc1O     bin B
12                  O=C(CCc1ccccc1)c1ccccc1O     bin C

* * *

# Test system: Hl-Hela cells
# assay-protocol: Cytotoxicity by XTT assay (treated, mock-infected cells)
# setup-conditions: read-out: TC50; Format 1; concentration that retards cell growth by 50%, mock-infected Hl-Hela cells
readout-name: CC50 (µM)

> print(dat)
                          compound.structure  readout.qualifier  result.number
 1                        O=Cc1c(O)cc(O)cc1O                  =            410
 2                    O=C(c1ccccc1)c1ccccc1O                  =             28
 3                   CC(=O)c1c(O)ccc2ccccc12                  =            180
 4            CCCCCC(=O)c1cc(Cl)c(O)c(Cl)c1O                  =             24
 5                       CC(=O)c1cc(Cl)ccc1O                  >           2500
 6             COc1ccc(C(=O)c2ccccc2O)c(O)c1                  =             50
 7                       CC(=O)c1cc(Br)ccc1O                  =           1230
 8            CCCCCC(=O)c1c(O)cc(O)c(Cl)c1OC                  =             50
 9  CCCCCC(=O)c1c(O)c(Cl)c(OC)c(Cl)c1OCC(N)=O                  =            122
10                   CC(=O)c1cc(Cl)cc(Cl)c1O                  =             29
11           CCOC(=O)c1c(O)cc(O)c(C(C)=O)c1O                  =             29
12                 COc1cc(O)c(C(C)=O)c(OC)c1                  =            780
13            CCCCCC(=O)c1c(OC)cc(O)c(Cl)c1O                  =             48
14                   CC(=O)c1cc(Br)cc(Br)c1O                  =             59
15         CC(=O)c1cc(Cl)cc([N+](=O)[O-])c1O                  =             12
16                       CCC(=O)c1cc(O)ccc1O                  =           1720

* * *

Quick record: CC50, Hl-Hela cells.
readout-name: CC50 (µM)

> print(dat)
                                   molecule  result.number
1  CCCCCCCCNC(=O)c1cc([N+](=O)[O-])cc([N+](=O)[O-])c1O [SA#128]            429
2  O=C(NCc1ccccc1)c1cc([N+](=O)[O-])cc([N+](=O)[O-])c1O [SA#120]            271
3  O=C(NCCc1ccccc1)c1cc([N+](=O)[O-])cc([N+](=O)[O-])c1O [SA#127]            187

* * *

# assay-protocol: Cytotoxicity by XTT assay (treated, mock-infected cells)
# setup-conditions: human, H1-HeLa cells (ATCC), mock-infected
Below: a set of entries, each annotated with reported CC50.
readout-name: CC50 (µM)

> print(dat)
                                   compound  readout.name   u  readout.qualifier  result.number
1                     COc1ccc(O)c(C(C)=O)c1          CC50  µM                  >           1250
2                        CC(=O)c1cc(F)ccc1O          CC50  µM                  >           1250
3                     CC(=O)c1c(O)cc(O)cc1O          CC50  µM                  =            548
4          CC(=O)c1cc(C)cc([N+](=O)[O-])c1O          CC50  µM                  =             67
5  CC(=O)c1c(O)cccc1OCC(N)=O [SA#121, 2-(2-acetyl-3-hydroxyphenoxy)-acetamide]          CC50  µM                  =            425

* * *

# tested-system: Apopain (caspase-3) (Homo sapiens, UniProt P42574)
# Construct: purchased Bio-rad FluorAce Apopain Assay Kit (booklet 4100119)
# Sequence (P42574 29-175 limits assumed): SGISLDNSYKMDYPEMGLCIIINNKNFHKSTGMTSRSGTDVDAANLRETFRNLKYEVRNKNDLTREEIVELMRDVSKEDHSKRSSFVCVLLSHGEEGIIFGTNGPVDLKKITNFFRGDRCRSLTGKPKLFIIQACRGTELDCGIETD
# Sequence (P42574 176-277 limits assumed): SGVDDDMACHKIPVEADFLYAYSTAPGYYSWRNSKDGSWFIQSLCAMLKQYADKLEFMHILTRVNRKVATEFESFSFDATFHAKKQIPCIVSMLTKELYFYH
# assay-protocol: Apopain (Caspase-3) Regulation Assay (FluorAce Apopain Assay Kit)
# Type: biochemical
# setup-conditions: Apopain modulation: Inhibitor or Activator
readout-name: Activity

> print(dat)
                    compound.structure                             tested.system     result
 1  CCCCCC(=O)c1c(O)c(Cl)c(OC)c(Cl)c1O  Apopain (caspase-3) (Homo sapiens, UniProt P42574)  Activator
 2          CC(=O)c1c(O)c(Cl)cc(Cl)c1O  Apopain (caspase-3) (Homo sapiens, UniProt P42574)  Inhibitor
 3                O=Cc1cc(Cl)cc(Cl)c1O  Apopain (caspase-3) (Homo sapiens, UniProt P42574)  Inhibitor
 4                  CC(=O)c1cc(F)ccc1O  Apopain (caspase-3) (Homo sapiens, UniProt P42574)  Inhibitor
 5    CC(=O)c1cc(C)cc([N+](=O)[O-])c1O  Apopain (caspase-3) (Homo sapiens, UniProt P42574)  Inhibitor
 6                  CC(=O)c1c(O)cccc1O  Apopain (caspase-3) (Homo sapiens, UniProt P42574)  Activator
 7                CC(=O)c1cccc(C#N)c1O  Apopain (caspase-3) (Homo sapiens, UniProt P42574)  Inhibitor
 8                  O=Cc1cc(I)cc(I)c1O  Apopain (caspase-3) (Homo sapiens, UniProt P42574)  Activator
 9          O=Cc1cc([N+](=O)[O-])ccc1O  Apopain (caspase-3) (Homo sapiens, UniProt P42574)  Inhibitor
10   O=C(CCc1ccc(O)cc1)c1c(O)cc(O)cc1O  Apopain (caspase-3) (Homo sapiens, UniProt P42574)  Inhibitor
11               COc1ccc(O)c(C(C)=O)c1  Apopain (caspase-3) (Homo sapiens, UniProt P42574)  Inhibitor
12               CC(=O)c1c(O)cc(O)cc1O  Apopain (caspase-3) (Homo sapiens, UniProt P42574)  Inhibitor
13                  CC(=O)c1cc(O)ccc1O  Apopain (caspase-3) (Homo sapiens, UniProt P42574)  Inhibitor

Data provenance: patent US6828350B1
